system: RIOK1; conditions: concentration: 1 μM, replicates: in singlicate; n = 1;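 note: KINOMEscan kinase panel screen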
Value kind: %Inh (%)
Answers are plain numbers, in %.

Consider the following illustrative entries.
Indicate the recorded %Inh value for this compound: C[C@@H]1CC[C@@H](C(=O)Nc2ccccc2)CN1c1cc(-c2ccc3c(N)n[nH]c3c2)nc(N)n1 48

Indicate the recorded %Inh value for this compound: COc1cc(Nc2ncc3c(C)nc(-c4cc5ccccc5[nH]4)n3n2)cc(OC)c1OC 35

Indicate the recorded %Inh value for this compound: O=C(Nc1cccc(-c2nn3ccccc3c2-c2ccnc(Nc3cccc(C(F)(F)F)c3)n2)c1)c1c(F)cccc1F 17

Indicate the recorded %Inh value for this compound: Cc1ccc(S(=O)(=O)Nc2ccc(Nc3nccc(Nc4cccc5[nH]ncc45)n3)cc2)cc1 78

Indicate the recorded %Inh value for this compound: Cl.NC(=O)c1cccc(Nc2nccc(Nc3ccc(Oc4c(Cl)cccc4Cl)c(Cl)c3)n2)c1 56

// for each compound below, give its %Inh
1. Cl.Cl.NCC(NCc1ccc(-c2ccnc3[nH]ccc23)s1)c1ccccc1 (centres unmarked)
2. Cc1ccc(C(=O)N2CC[C@@H](O)C2)cc1-n1c(C)cc(OCc2ccc(F)cc2F)c(Br)c1=O
3. Nc1ncnc2c1nc(-c1ccccc1)n2-c1ccccc1
4. Cl.Cl.NCC(NC(=O)c1cc(-c2ccccc2)c(-c2ccnc3[nH]ccc23)s1)c1ccccc1 (centres unmarked)
5. Cl.Cl.NCC(C(=O)Nc1cc(Br)c(-c2ccnc3[nH]ccc23)s1)c1ccccc1 (centres unmarked)
6. COc1cccc(C2=C(Nc3ccc(Cl)c(C(=O)O)c3)C(=O)NC2=O)c1
7. Cn1cc(-c2[nH]c3cc(NC(=O)[C@H](N)C4CCCCC4)cc4c3c2C=NNC4=O)cn1

100
12
0
69
95.7
0
93.7

// for each compound below, give its %Inh
1. CNC(=O)c1ccccc1Nc1nc(Nc2ccc(N3CCOCC3)cc2)ncc1Cl.Cl
2. FC(F)(F)c1ccc(/C=C/c2cncnc2Nc2ccc3[nH]c(Cc4ccccc4)nc3c2)cc1

1. 100
2. 33

###

Kindly supply the reported %Inh values for the records listed here.
system: ACVR1; settings: concentration: 1 μM, replicates: in singlicate; n = 1

Indicate the recorded %Inh value for this molecule: CCCCc1nn2ncccc2c1-c1ccnc(Nc2ccc(N3CCN(C)CC3)cc2)n1 89%

Indicate the recorded %Inh value for this molecule: Clc1ccc(-c2nn3ncccc3c2-c2ccnc(Nc3ccc4c(c3)OCCO4)n2)cc1 0%

Indicate the recorded %Inh value for this molecule: CNC(=O)c1ccccc1Nc1nc(Nc2ccc(N3CCOCC3)cc2)ncc1Cl.Cl 95%

// for each molecule below, give its %Inh
1. CCn1c(-c2nonc2N)nc2c(C#CC(C)(C)O)ncc(OCCCCN)c21.O=C(O)C(F)(F)F.O=C(O)C(F)(F)F
2. O=C(Nc1cccc(Oc2ccc3nc(NC(=O)C4CC4)cn3n2)c1)c1ccccc1C(F)(F)F
3. O=C(Nc1cccc(-c2nn3ccccc3c2-c2ccnc(Nc3cccc(F)c3)n2)c1)c1c(F)ccc(F)c1Cl
4. Cc1ccc(C(=O)Nc2ccc(Nc3ccnc4cc(-c5nccs5)ccc34)cc2O)cc1.Cl
5. Cc1ccc(S(=O)(=O)Nc2ccc(Nc3nccc(Nc4cccc5[nH]ncc45)n3)cc2)cc1

1. 3%
2. 0%
3. 1%
4. 18%
5. 32%

// for each molecule below, give its %Inh
1. CC(=O)N1CCN(c2ccc(Nc3nccc(-c4sc(C(C)C)nc4-c4cccc(NS(=O)(=O)c5cccc(Cl)c5)c4)n3)cn2)CC1
2. O=C(O)C(F)(F)F.O=C(O)C(F)(F)F.O=c1[nH]ccc2nc(N[C@@H]3CCCNC3)nc(Nc3ccc(S(=O)(=O)N4CCOCC4)cc3)c12

61%
91.1%

// for each molecule below, give its %Inh
1. NCCCC(NC(=O)c1cc(Br)c(-c2ccnc3[nH]ccc23)s1)c1ccccc1.O=C(O)C(F)(F)F.O=C(O)C(F)(F)F (stereo not shown)
2. CN1CCN(Cc2cccc(-c3ccc4c(Nc5ccc(Oc6ccccc6)cc5)ccnc4c3)c2)CC1

1: 0%; 2: 0%

// for each molecule below, give its %Inh
1. CN(c1ccc(NC(=O)Nc2cc(C(F)(F)F)ccc2F)cc1)c1ccnc(Nc2ccc(S(N)(=O)=O)cc2)n1
2. Cn1cc(-c2[nH]c3cc(NC(=O)[C@H](N)C4CCCCC4)cc4c3c2C=NNC4=O)cn1
3. COc1cccc(NC(=O)NC2CCN(c3ccnc(Nc4cc(OC)c(OC)c(OC)c4)n3)C2)c1 (stereo not shown)

["0%", "58%", "0%"]

// for each molecule below, give its %Inh
1. COc1cccc(C2=C(Nc3ccc(Cl)c(C(=O)O)c3)C(=O)NC2=O)c1
2. COc1cc(Nc2nccc(-c3c(-c4cccc(NC(=O)c5c(F)cccc5F)c4)nn4ncccc34)n2)cc(OC)c1OC
3. c1ccc(-c2n[nH]cc2Nc2ccnc3ccccc23)nc1
4. Cl.NC(=O)c1cccc(Nc2nccc(Nc3ccc(Oc4c(Cl)cccc4Cl)c(Cl)c3)n2)c1
5. CCn1c(-c2nonc2N)nc2c(C#CC(C)(C)O)nc(OC[C@H](N)c3ccccc3)cc21
6. Cl.Cl.NCC(NC(=O)c1cc(-c2ccccc2)c(-c2ccnc3[nH]ccc23)s1)c1ccccc1 (stereo not shown)
7. Cl.Cl.NCC(NCc1ccc(-c2ccnc3[nH]ccc23)s1)c1ccccc1 (stereo not shown)
8. COc1cccc(C(=O)Nc2cccc(Oc3ccc4nc(NC(=O)C5CC5)cn4n3)c2)c1

1: 15%; 2: 0%; 3: 30%; 4: 0%; 5: 0%; 6: 10%; 7: 18%; 8: 0%

// for each molecule below, give its %Inh
1. Cn1cc(-c2ccc3c(c2)CCN3C(=O)Cc2cccc(F)c2)c2c(N)ncnc21
2. COc1cc(Nc2nccc(-c3c(-c4cccc(NC(=O)c5c(F)cccc5F)c4)nn4ccccc34)n2)cc(OC)c1OC
3. COc1ccc(CNC(=O)NC2CCN(c3ccnc(Nc4ccc(F)cc4)n3)CC2)cc1

1: 0%; 2: 0%; 3: 0%

// for each molecule below, give its %Inh
1. Cc1occc1-c1ncc(OC[C@@H](N)Cc2c[nH]c3ccccc23)cc1-c1ccc2[nH]nc(C)c2c1.O=C(O)C(F)(F)F
2. CSc1cccc2c(-c3ccncn3)c(-c3ccc(F)cc3)nn12
3. COC(=O)Nc1nc2cc(Oc3ccc(NC(=O)Nc4cc(C(F)(F)F)ccc4F)cn3)ccc2[nH]1.Cl.Cl
4. CC(C)c1nc(-c2cccc(NS(=O)(=O)c3c(F)cccc3F)c2F)c(-c2ccnc(Nc3ccc(N4CCOCC4)nc3)n2)s1

1. 0%
2. 0%
3. 0%
4. 43%

Indicate the recorded %Inh value for this molecule: COc1cc(Nc2ncc3c(C)nc(-c4cc5ccccc5[nH]4)n3n2)cc(OC)c1OC 0%
